system name: human Y4 receptor (human, UniProt P0DQD5 1-375)
Sequence (P0DQD5 whole entry): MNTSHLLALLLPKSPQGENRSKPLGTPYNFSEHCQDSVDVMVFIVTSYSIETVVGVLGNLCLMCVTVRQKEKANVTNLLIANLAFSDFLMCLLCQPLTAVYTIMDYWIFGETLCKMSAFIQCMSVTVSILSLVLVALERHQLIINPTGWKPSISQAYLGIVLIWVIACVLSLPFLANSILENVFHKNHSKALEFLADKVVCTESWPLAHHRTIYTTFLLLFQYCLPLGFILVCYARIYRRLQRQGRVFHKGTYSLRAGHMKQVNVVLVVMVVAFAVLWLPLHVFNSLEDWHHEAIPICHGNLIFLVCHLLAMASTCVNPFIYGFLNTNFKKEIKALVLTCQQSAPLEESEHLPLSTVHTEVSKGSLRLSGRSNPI
measurement notes: cell-based or functional assay
Where no end group is shown, it is not given here.
Hi! Just check whether EC50, inhibition of forskolin-stimulated cAMP accumulation, LM(tk-) cells is below 0.3 nM. Below gives yes (1), equal or above gives no (0).

# example entries with known answers
- binder: "LTRPRY-NH2 (peptide, UniProt P01298 60-65, looked up, range 60-65; also called human PP31-36) [PP31-36, human]"
  class assignment: "no (0)"
- binder: "YINMLTRPRY-NH2 (peptide, UniProt P01298 56-65, looked up, range 27-36) [PP27-36, human]"
  class assignment: "no (0)"
- binder: "TPEQMAQYAADLRRYINMLTRPRY-NH2 (peptide, UniProt P01298 42-65, looked up, range 13-36) [PP13-36, human]"
  class assignment: "no (0)"

Input: Confirm or reject: EC50, inhibition of forskolin-stimulated cAMP accumulation, LM(tk-) cells of APLEPVYPGDNATPEQMAQYAADLRRYINMLTRPRY-NH2 (peptide, UniProt P01298 30-65, looked up, mature; also called human PP; PP, human) [human pancreatic polypeptide] lies strictly below 0.3 nM
Output: yes (1)

Input: Subsequent entry: APLEPVYPGDNATPEQMAQYAADLRRYINMITRQRY-NH2 (peptide, UniProt P01298 30-65, looked up, mature) [[Ile^31, Gln^34]PP, human]
Output: yes (1)

Input: Subsequent entry: PLEPVYPGDNATPEQMAQYAADLRRYINMLTRPRY-NH2 (peptide, UniProt P01298 31-65, looked up) [PP2-36, human]
Output: yes (1)

Cited source for all entries: patent US6913892
